- System: Plasmodium falciparum
- protocol.text: Antiparasitic activity against Plasmodium falciparum D6
- Type: functional, organism-based
Measured EC50, listed per entry for reference.
Number only, in µM; omit the unit.

| chem.smiles | target.of.assay | test.result |
| --- | --- | --- |
| NCCCN(Cc1ccc(OCc2ccc(Br)cc2)cc1)Cc1ccc(OCc2ccc(Br)cc2)cc1 | Plasmodium falciparum | 1.23 |

Next item in the queue.
[in] Supply reported EC50 belonging to this compound: NCCCN(Cc1ccc(OCCc2ccccc2)cc1)Cc1ccc(OCCc2ccccc2)cc1.O=C(O)C(F)(F)F
[out] 6.94

====

- Tested on: Plasmodium falciparum
- protocol.text: Antiparasitic activity against Plasmodium falciparum D6
- Format: functional, organism-based
readout.name: EC50

| chem.smiles | target.of.assay | test.result |
| --- | --- | --- |
| COc1ccc(CN(CCCCN)Cc2ccc(OC)cc2)cc1.O=C(O)C(F)(F)F | Plasmodium falciparum | Not Active |
| NCCCCN(Cc1ccccc1)Cc1ccc(C(=O)O)cc1.O=C(O)C(F)(F)F | Plasmodium falciparum | Not Active |
| NCCCN(Cc1ccc(OCCCc2ccccc2)cc1)Cc1ccc(OCCCc2ccccc2)cc1 | Plasmodium falciparum | 2.01 µM |
| NCCCN(Cc1ccc(Cl)cc1)Cc1ccc(Cl)cc1.O=C(O)C(F)(F)F | Plasmodium falciparum | Not Active |
| COc1ccc(CN(CCCN)Cc2ccccc2)cc1OC.O=C(O)C(F)(F)F | Plasmodium falciparum | Not Active |

[in] Supply reported EC50 belonging to this compound: CC(C)c1ccc(CN(CCCN)Cc2ccc(C(C)C)cc2)cc1.O=C(O)C(F)(F)F
[out] Not Active

[in] Supply reported EC50 belonging to this compound: NCCCCN(Cc1ccccc1)Cc1ccncc1.O=C(O)C(F)(F)F
[out] Not Active

[in] Supply reported EC50 belonging to this compound: CCCCOc1ccc(CN(CCCN)Cc2ccc(OCCCC)cc2)cc1
[out] 4.1 µM

[in] Supply reported EC50 belonging to this compound: NCCCCN(Cc1ccccc1)Cc1ccccc1.O=C(O)C(F)(F)F
[out] Not Active

[in] Supply reported EC50 belonging to this compound: NCCCCN(Cc1ccccc1)Cc1ccc(Cl)cc1.O=C(O)C(F)(F)F
[out] Not Active

====

- Test system: Plasmodium falciparum
- protocol.text: Antiparasitic activity against Plasmodium falciparum D6
- Assay type: functional, organism-based
- condition.info: Plasmodium falciparum
readout.name: pEC50
On this scale, pEC50 is minus log10 of a concentration expressed in M (mol/L).

Below are worked cases with known answers.
| chem.smiles | readout.name | test.result |
| --- | --- | --- |
| NCCCN(Cc1ccc(OCCc2ccccc2)cc1)Cc1ccc(OCCc2ccccc2)cc1.O=C(O)C(F)(F)F | pEC50 | 5.37 |
| NCCCCN(Cc1ccc(OCc2ccccc2)cc1)Cc1ccc(OCc2ccccc2)cc1 | pEC50 | 5.49 |
| NCCCCN(Cc1ccc(OCc2ccc(Cl)c(Cl)c2)cc1)Cc1ccc(OCc2ccc(Cl)c(Cl)c2)cc1 | pEC50 | 5.94 |
| CC(C)(C)c1ccc(COc2ccc(CN(CCCN)Cc3ccc(OCc4ccc(C(C)(C)C)cc4)cc3)cc2)cc1 | pEC50 | 5.60 |
| NCCCN(Cc1ccc(-c2ccc(Br)cc2)o1)Cc1ccc(-c2ccc(Br)cc2)o1.O=C(O)C(F)(F)F | pEC50 | 5.25 |

[in] Supply reported pEC50 belonging to this molecule: NCCCCN(Cc1ccc(OCc2ccccc2)c(OCc2ccccc2)c1)Cc1ccc(OCc2ccccc2)c(OCc2ccccc2)c1
[out] 5.46

[in] Supply reported pEC50 belonging to this molecule: CC(C)c1ccc(CN(CCCCN)Cc2ccccc2)cc1
[out] 5.02

[in] Supply reported pEC50 belonging to this molecule: NCCCN(Cc1ccccc1)Cc1ccc(OCc2ccccc2)cc1
[out] 5.35

[in] Supply reported pEC50 belonging to this molecule: CCCCOc1ccc(CN(CCCN)Cc2ccc(OCCCC)cc2)cc1
[out] 5.36

[in] Supply reported pEC50 belonging to this molecule: NCCCCN(Cc1ccc(OCCCc2ccccc2)cc1)Cc1ccc(OCCCc2ccccc2)cc1
[out] 5.95
